For each record, write down the corresponding MIC.
- Tested on: Staphylococcus aureus ATCC 29213 (MSSA)
- Method summary: Broth microdilution MIC, S. aureus ATCC 29213
- Type: cell-based
- Condition label: Staphylococcus aureus ATCC 29213 (MSSA); read-out: MIC S. a. 29213
Kindly answer with a numeric value in µg/mL, unit omitted.

Ask | Can you look up the measured MIC of Nc1nc(C(=NO)C(=O)N[C@@H]2C(=O)N3C(C(=O)O)=C(Sc4nnc(N)s4)CSC23)ns1 (stereo partly drawn) [Compound 37] for me?
Reply | 0.25

Ask | Using the record for CC(C)(C)O/N=C(\C(=O)N[C@@H]1C(=O)N2C(C(=O)O)=C(Sc3ccnn3-c3ccccc3)CS[C@H]12)c1csc(N)n1 [Compound 18] , report its MIC.
Reply | 1

Ask | Form field: reported MIC of CCC(CC)O/N=C(\C(=O)N[C@@H]1C(=O)N2C(C(=O)O)=C(Sc3ccnn3-c3ccccc3)CS[C@H]12)c1csc(N)n1 [Compound 17]
Reply | 0.5

Ask | Could you tell me which MIC is on file for Nc1nc(/C(=N/OCCF)C(=O)N[C@@H]2C(=O)N3C(C(=O)O)=C(Sc4ccnn4-c4ccccc4)CS[C@H]23)c(Cl)s1 [Compound 16] ?
Reply | 0.5

Ask | Which MIC value belongs to Nc1nc(C(=NO)C(=O)N[C@@H]2C(=O)N3C(C(=O)O)=C(Sc4nnc[nH]4)CSC23)c(Cl)s1 (stereo partly drawn) [Compound 40] ?
Reply | 0.25

Ask | Given Nc1nsc(SC2=C(C(=O)O)N3C(=O)[C@@H](NC(=O)C(=NO)c4nc(N)sc4Cl)C3SC2)n1 (stereo partly drawn) [Compound 47] , state its recorded MIC.
Reply | 0.125

Ask | # lookup: MIC of Nc1nc(/C(=N/OCCF)C(=O)N[C@@H]2C(=O)N3C(C(=O)O)=C(Sc4ccnn4-c4ccccc4)CS[C@H]23)cs1 [Compound 14]
Reply | 1

Ask | What measured MIC goes with Nc1nnc(SC2=C(C(=O)O)N3C(=O)[C@@H](NC(=O)C(=NO)c4nc(N)sc4Cl)C3SC2)s1 (stereo partly drawn) [Compound 36] ?
Reply | 0.25

Ask | Query (compound): Nc1nc(C(=NO)C(=O)N[C@@H]2C(=O)N3C(C(=O)O)=C(Sc4cnns4)CSC23)ns1 (stereo partly drawn) [Compound 39] ; field requested: MIC
Reply | 0.125

Ask | Could you share which MIC value was measured for CSc1nnc(SC2=C(C(=O)O)N3C(=O)[C@@H](NC(=O)C(=NO)c4nc(N)sc4Cl)C3SC2)s1 (stereo partly drawn) [Compound 44] ?
Reply | 0.25

Ask | What value of MIC has been recorded for this entry: C=CCO/N=C(\C(=O)N[C@@H]1C(=O)N2C(C(=O)O)=C(Sc3ccnn3-c3ccccc3)CS[C@H]12)c1csc(N)n1 [Compound 20]
Reply | 1

Ask | Endpoint output: MIC of Nc1nnc(SC2=C(C(=O)O)N3C(=O)[C@@H](NC(=O)C(=NOCCF)c4nc(N)sc4Cl)C3SC2)s1 (stereo partly drawn) [Compound 42] . Value?
Reply | 0.5

Ask | Bench note: what MIC did Nc1nc(C(=NO)C(=O)N[C@@H]2C(=O)N3C(C(=O)O)=C(Sc4nnco4)CSC23)c(Cl)s1 (stereo partly drawn) [Compound 48] show?
Reply | 0.25

Ask | Which MIC is reported for this compound? Nc1nc(C(=NO)C(=O)N[C@@H]2C(=O)N3C(C(=O)O)=C(Sc4nncs4)CSC23)ns1 (stereo partly drawn) [Compound 50]
Reply | 0.25

Ask | If you can, please state the reported MIC value of Cc1nnsc1SC1=C(C(=O)O)N2C(=O)[C@@H](NC(=O)C(=NO)c3nc(N)sc3Cl)C2SC1 (stereo partly drawn) [Compound 34] .
Reply | 0.125

Ask | Quick check: MIC of Nc1nc(C(=NO)C(=O)N[C@@H]2C(=O)N3C(C(=O)O)=C(Sc4nc(Cl)ns4)CSC23)c(Cl)s1 (stereo partly drawn) [Compound 52] ?
Reply | 0.25

Ask | What value of measured MIC is listed for Nc1nc(/C(=N/O)C(=O)N[C@@H]2C(=O)N3C(C(=O)O)=C(Sc4ccnn4-c4ccccc4)CS[C@H]23)cs1 [Compound 15] ?
Reply | 1

Ask | Entry Cc1noc(SC2=C(C(=O)O)N3C(=O)[C@@H](NC(=O)C(=NO)c4nc(N)sc4Cl)C3SC2)n1 (stereo partly drawn) [Compound 45] has what MIC?
Reply | 0.5

Ask | Looking for the measured MIC of Nc1nc(CC(=O)N[C@@H]2C(=O)N3C(C(=O)O)=C(Sc4nnc(N)s4)CSC23)cs1 (stereo partly drawn) [Compound 51] , can you help?
Reply | 0.125

Ask | Need MIC, item Nc1nc(C(=NO)C(=O)N[C@@H]2C(=O)N3C(C(=O)O)=C(Sc4nncs4)CSC23)c(Cl)s1 (stereo partly drawn) [Compound 41]
Reply | 0.125

Ask | Record request: MIC value, item Nc1nc(/C(=N/O)C(=O)N[C@@H]2C(=O)N3C(C(=O)O)=C(Sc4ccncc4CO)CS[C@H]23)c(Cl)s1 [Compound 28]
Reply | 0.5

Ask | Fill in: MIC of Nc1nc(/C(=N/O)C(=O)N[C@@H]2C(=O)N3C(C(=O)O)=C(Sc4ccncc4)CS[C@H]23)c(Cl)s1 [Compound 21] is ___
Reply | 0.25

Ask | Entry Nc1nc(C(=NO)C(=O)N[C@@H]2C(=O)N3C(C(=O)O)=C(Sc4nnc(N)s4)CSC23)cs1 (stereo partly drawn) [Compound 49] : reported MIC = ?
Reply | 0.25

Ask | Entry Nc1nc(/C(=N/OC2CCCC2)C(=O)N[C@@H]2C(=O)N3C(C(=O)O)=C(Sc4ccnn4-c4ccccc4)CS[C@H]23)cs1 [Compound 13] : reported MIC = ?
Reply | 0.5

Ask | Which measured MIC value corresponds to Nc1nc(/C(=N/OCC2CC2)C(=O)N[C@@H]2C(=O)N3C(C(=O)O)=C(Sc4ccnn4-c4ccccc4)CS[C@H]23)cs1 [Compound 19] ?
Reply | 0.5
